Measured pKi, listed per entry for reference.
Target: Histone deacetylase 11 (Homo sapiens, UniProt Q96DB2)
Sequence (Q96DB2 whole entry): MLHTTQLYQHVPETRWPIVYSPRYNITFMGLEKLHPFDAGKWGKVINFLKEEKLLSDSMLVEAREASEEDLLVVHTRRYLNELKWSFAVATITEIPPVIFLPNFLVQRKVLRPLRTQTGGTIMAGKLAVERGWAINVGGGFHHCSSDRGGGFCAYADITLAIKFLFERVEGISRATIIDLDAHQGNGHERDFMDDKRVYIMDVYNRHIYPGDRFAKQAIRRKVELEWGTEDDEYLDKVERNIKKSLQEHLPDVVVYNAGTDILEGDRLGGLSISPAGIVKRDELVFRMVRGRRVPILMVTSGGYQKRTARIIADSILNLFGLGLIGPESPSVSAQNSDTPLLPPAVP
Assay: Inhibition of recombinant human HDAC11 enzyme using Ac-LeuGlyLys(Ac)-AMC as substrate after 15 to 30 mins
pKi: −log10 of the molar value.

Asked: Recorded pKi for CC(C)[C@H]1NC(=O)[C@@H](C)[C@@H](C/C=C\CCC(N)=O)NC(=O)[C@@H](Cc2ccccc2)NC(=O)[C@@H](C)NC1=O [AZUMAMIDE A] , please?
Given back: < 5.30

Asked: Recorded pKi for CC(C)[C@H]1NC(=O)[C@@H](C)[C@@H](C/C=C\CCC(N)=O)NC(=O)[C@@H](Cc2ccc(O)cc2)NC(=O)[C@@H](C)NC1=O [AZUMAMIDE B] , please?
Given back: < 5.30

Asked: Recorded pKi for C[C@@H]1C(=O)N[C@H](C)C(=O)N[C@H](C)C(=O)N[C@H](Cc2ccccc2)C(=O)N[C@@H]1C/C=C\CCC(N)=O [AZUMAMIDE D] , please?
Given back: < 5.30
